I'd be grateful if you could share measured inhibition of growth at 10 µM for these entries.
- Tested on: MOLT-4
- Test details: Growth inhibition of human MOLT4 cells assessed as growth inhibition at 10 uM by sulforhodamine B assay
- Assay type: functional
- Experimental context: read-out: GI
Answers are plain numbers, in %.

Below, 6 compounds whose answers are already recorded.
Smiles entry: C/C=C(/C)C(=O)O[C@@H]1CC(C)(C)C[C@H]2C3=CC[C@@H]4[C@@]5(C)CCC(=O)C(C)(C)[C@@H]5CC[C@@]4(C)[C@]3(C)CC[C@@]12C(=O)O
Unit name: %
Reported result: 56.7
--
Smiles entry: CC1(C)C[C@@H](O)[C@]2(C(=O)O)CC[C@]3(C)C(=CC[C@@H]4[C@@]5(C)CC[C@H](O)C(C)(C)[C@@H]5CC[C@]43C)[C@@H]2C1
Unit name: %
Reported result: 21.7
--
Smiles entry: CC1(C)C[C@@H](O)[C@]2(C(=O)O)CC[C@]3(C)C(=CC[C@@H]4[C@@]5(C)C/C(=C\C=C\c6ccccc6)C(=O)C(C)(C)[C@@H]5CC[C@]43C)[C@@H]2C1
Unit name: %
Reported result: 55.6
--
Smiles entry: CC1(C)C[C@@H](O)[C@]2(C(=O)O)CC[C@]3(C)C(=CC[C@@H]4[C@@]5(C)CCC(=O)C(C)(C)[C@@H]5CC[C@]43C)[C@@H]2C1
Unit name: %
Reported result: 21.3
--
Smiles entry: C/C=C(/C)C(=O)O[C@@H]1CC(C)(C)C[C@H]2C3=CC[C@@H]4[C@@]5(C)CC[C@H](O)C(C)(C)[C@@H]5CC[C@@]4(C)[C@]3(C)CC[C@@]12C(=O)O
Unit name: %
Reported result: 58.6
--
Smiles entry: CC(C)=CC(=O)O[C@@H]1CC(C)(C)C[C@H]2C3=CC[C@@H]4[C@@]5(C)CCC(=O)C(C)(C)[C@@H]5CC[C@@]4(C)[C@]3(C)CC[C@@]12C(=O)O
Unit name: %
Reported result: 63.5

Go through the list and state inhibition of growth at 10 µM for each entry.
1. CC(C)=CC(=O)O[C@@H]1CC(C)(C)C[C@H]2C3=CC[C@@H]4[C@@]5(C)CC[C@H](O)C(C)(C)[C@@H]5CC[C@@]4(C)[C@]3(C)CC[C@@]12C(=O)O
2. COc1cc(/C=C2\C[C@]3(C)[C@H]4CC=C5[C@@H]6CC(C)(C)C[C@@H](O)[C@]6(C(=O)O)CC[C@@]5(C)[C@]4(C)CC[C@H]3C(C)(C)C2=O)ccc1O

[50.4, 36.7]

src = ChEMBL document CHEMBL2413072
